measuredTarget: wild-type human ALK cytoplasmic domain (amino acids 1058-1620) (Homo sapiens)
Construct: The cytoplasmic domain (amino acids 1058-1620) of wild-type human ALK; GST (N); made in house; host or cells: SF9 insect cells
assayText: ALK Inhibition in Enzyme Assay (Lance TR-FRET)
Assay type: biochemical
conditionDetails: 2 nM enzyme, ATP at 40 μM (Km apparent), 90 minutes, mean of three replicates; read-out: ALK IC50
pIC50: −log10 of the molar value.
What pIC50 was measured for each of the following?

Let me check: Cc1ccc(CNC(=O)[C@H]2CCCN(c3ccnc(Nc4cccc(C(C)C)c4)n3)C2)cc1 [Example 171] , system wild-type human ALK cytoplasmic domain (amino acids 1058-1620) (Homo sapiens), measured pIC50 is 6.00 to 7.00

Let me check: COc1cc(Nc2nccc(N3CCC[C@H](C(=O)NCc4ccc5[nH]c(C)cc5c4)C3)n2)cc(OC)c1OC [Example 76] , system wild-type human ALK cytoplasmic domain (amino acids 1058-1620) (Homo sapiens), measured pIC50 is 7.00 to 7.30

Let me check: COc1cc(Nc2nccc(N3CCC[C@H](C(=O)NCc4ccc(Oc5ccc(Cl)cc5)cc4)C3)n2)cc(OC)c1OC [Example 118] , system wild-type human ALK cytoplasmic domain (amino acids 1058-1620) (Homo sapiens), measured pIC50 is 6.00 to 7.00

Let me check: Cc1ccc(CNC(=O)[C@H]2CCCN(c3ccnc(Nc4ccc(N5CCOCC5)cc4)n3)C2)cc1 [Example 139] , system wild-type human ALK cytoplasmic domain (amino acids 1058-1620) (Homo sapiens), measured pIC50 is 5.30 to 6.00

Let me check: CNC(=O)c1cccc(Nc2nccc(N3CCC[C@H](C(=O)NCc4ccc(C)cc4)C3)n2)c1 [Example 168] , system wild-type human ALK cytoplasmic domain (amino acids 1058-1620) (Homo sapiens), measured pIC50 is 5.30 to 6.00

Let me check: COc1cc(Nc2nccc(N3CCC[C@H](C(=O)NC(C#N)c4ccccc4)C3)n2)cc(OC)c1OC (stereo partly shown) [Example 43] , system wild-type human ALK cytoplasmic domain (amino acids 1058-1620) (Homo sapiens), measured pIC50 is 6.00 to 7.00

Let me check: COc1cc(Nc2nccc(N3CCC[C@H](C(=O)NCc4ccc(N5CCOCC5)cc4)C3)n2)cc(OC)c1OC [Example 78] , system wild-type human ALK cytoplasmic domain (amino acids 1058-1620) (Homo sapiens), measured pIC50 is 5.30 to 6.00

* * *

measuredTarget: wild-type human ALK cytoplasmic domain (amino acids 1058-1620) (Homo sapiens, UniProt Q9UM73)
Construct: The cytoplasmic domain (amino acids 1058-1620) of wild-type human ALK; GST (N); made in house; host or cells: SF9 insect cells
Sequence (Q9UM73 1058-1620): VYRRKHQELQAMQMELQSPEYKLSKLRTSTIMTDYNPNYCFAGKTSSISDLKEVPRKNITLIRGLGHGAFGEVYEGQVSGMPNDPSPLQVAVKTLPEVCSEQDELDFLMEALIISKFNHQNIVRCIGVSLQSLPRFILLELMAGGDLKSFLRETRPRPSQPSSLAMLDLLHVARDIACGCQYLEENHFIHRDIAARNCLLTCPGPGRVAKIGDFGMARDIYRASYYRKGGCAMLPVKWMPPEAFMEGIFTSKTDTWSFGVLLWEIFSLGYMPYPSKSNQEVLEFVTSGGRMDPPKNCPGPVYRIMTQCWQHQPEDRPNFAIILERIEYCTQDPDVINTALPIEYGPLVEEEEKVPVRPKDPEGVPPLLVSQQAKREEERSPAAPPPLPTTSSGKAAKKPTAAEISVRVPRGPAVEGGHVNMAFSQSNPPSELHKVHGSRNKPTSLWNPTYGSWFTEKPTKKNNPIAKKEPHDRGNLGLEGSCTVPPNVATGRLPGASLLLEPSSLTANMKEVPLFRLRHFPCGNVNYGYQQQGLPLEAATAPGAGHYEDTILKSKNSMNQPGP
assayText: ALK Inhibition in Enzyme Assay (Lance TR-FRET)
Assay type: biochemical
conditionDetails: 2 nM enzyme, ATP at 40 μM (Km apparent), 90 minutes, mean of three replicates; read-out: ALK IC50
pIC50: −log10 of the molar value.
What pIC50 was measured for each of the following?

GET /value?item= COc1cc(Nc2nccc(N3CCNC(C(=O)NCc4ccc(C)cc4)C3)n2)cc(OC)c1OC (stereo not drawn) &field=pIC50 returns 5.30 to 6.00

GET /value?item= `Cc1ccc(CNC(=O)[C@H]2CCCN(c3ccnc(Nc4cccc(C(C)(C)C)c4)n3)C2)cc1` &field=pIC50 returns 6.00 to 7.00

GET /value?item= `Cc1ccc(CNC(=O)[C@H]2CCCN(c3ccnc(Nc4cccc(S(N)(=O)=O)c4)n3)C2)cc1` &field=pIC50 returns 6.00 to 7.00

GET /value?item= `Cc1ccc(CNC(=O)[C@H]2CCCN(c3ccnc(Nc4ccc(N5CCNC(=O)C5)nc4)n3)C2)cc1` &field=pIC50 returns 5.30 to 6.00

GET /value?item= `Cc1ccc(CNC(=O)[C@H]2CCCN(c3ccnc(Nc4cccc(F)c4)n3)C2)cc1` &field=pIC50 returns 5.30 to 6.00

GET /value?item= `COc1cc(Nc2nccc(N3CCC[C@H](C(=O)NCc4cccc5ccccc45)C3)n2)cc(OC)c1OC` &field=pIC50 returns 5.30 to 6.00

GET /value?item= `Cc1ccc(CNC(=O)[C@H]2CCCN(c3ccnc(Nc4cnc5ccccc5c4)n3)C2)cc1` &field=pIC50 returns 5.30 to 6.00

GET /value?item= `Cc1ccc(CNC(=O)[C@H]2CCCN(c3ccnc(Nc4cc(OC[C@H]5CCCN5C)cc(C(F)(F)F)c4)n3)C2)cc1` &field=pIC50 returns 7.00 to 7.30

GET /value?item= `COc1ccccc1Nc1nccc(N2CCC[C@H](C(=O)NCc3ccc(C)cc3)C2)n1` &field=pIC50 returns 5.30 to 6.00

GET /value?item= `Cc1ccc(CNC(=O)[C@H]2CCCN(c3ccnc(Nc4cc(Cl)cc(Cl)c4)n3)C2)cc1` &field=pIC50 returns 5.30 to 6.00

GET /value?item= `Cc1ccc(CNC(=O)[C@H]2CCCN(c3ccnc(Nc4cccc(-c5cnco5)c4)n3)C2)cc1` &field=pIC50 returns 6.00 to 7.00

GET /value?item= `COc1cc(Nc2nccc(N3CCC[C@H](C(=O)NCc4cccc(Oc5ccc(C)cc5)c4)C3)n2)cc(OC)c1OC` &field=pIC50 returns 5.30 to 6.00

GET /value?item= `COc1cc(Nc2nccc(N3CCC[C@H](C(=O)NCc4ccc(Cl)c(Cl)c4)C3)n2)cc(OC)c1OC` &field=pIC50 returns 6.00 to 7.00

GET /value?item= `CC(=O)Nc1ccc(Nc2nccc(N3CCC[C@H](C(=O)NCc4ccc(C)cc4)C3)n2)cc1` &field=pIC50 returns 5.30 to 6.00

GET /value?item= `COc1cc(Nc2nccc(N3CCC[C@H](C(=O)NCc4cccc(Oc5ccc(Cl)cc5)c4)C3)n2)cc(OC)c1OC` &field=pIC50 returns 5.30 to 6.00

GET /value?item= `COc1cc(Nc2nccc(N3CCC[C@@H](C(=O)NCc4ccncc4)C3)n2)cc(OC)c1OC` &field=pIC50 returns 5.00 to 5.30

GET /value?item= `COc1cc(Nc2nccc(N3CCC[C@H](C(=O)NCc4ccccc4C(F)(F)F)C3)n2)cc(OC)c1OC` &field=pIC50 returns 5.00 to 5.30

GET /value?item= `COc1cc(Nc2nccc(N3CCC[C@H](C(=O)NCc4ccc5c(c4)OCCO5)C3)n2)cc(OC)c1OC` &field=pIC50 returns 5.30 to 6.00

GET /value?item= `COc1cc(Nc2nccc(N3CCC[C@H](C(=O)NCc4ccc(S(C)(=O)=O)cc4)C3)n2)cc(OC)c1OC` &field=pIC50 returns 5.30 to 6.00

GET /value?item= `COc1cc(Nc2nccc(N3CCC[C@H](C(=O)NCc4ccc(Cl)cc4F)C3)n2)cc(OC)c1OC` &field=pIC50 returns 7.00 to 7.30

GET /value?item= `COc1cc(Nc2nccc(N3CCC[C@H](C(=O)NCc4ccc5c(c4)CCO5)C3)n2)cc(OC)c1OC` &field=pIC50 returns 6.00 to 7.00

GET /value?item= `Cc1ccc(CNC(=O)[C@H]2CCCN(c3ccnc(Nc4cccc(-c5nnn[nH]5)c4)n3)C2)cc1` &field=pIC50 returns 5.00 to 5.30

GET /value?item= `COc1ccc(CCNC(=O)[C@H]2CCCN(c3ccnc(Nc4cc(OC)c(OC)c(OC)c4)n3)C2)cc1` &field=pIC50 returns 6.00 to 7.00

GET /value?item= `COc1cc(Nc2nccc(N3CCC[C@H](C(=O)NCc4ccc(F)cc4)C3)n2)cc(OC)c1OC` &field=pIC50 returns 6.00 to 7.00

GET /value?item= `COc1cc(Nc2nccc(N3CCC[C@H](C(=O)NCc4ccc(OC(F)F)cc4)C3)n2)cc(OC)c1OC` &field=pIC50 returns > 7.30

GET /value?item= `CC(=O)NCc1cccc(Nc2nccc(N3CCC[C@H](C(=O)NCc4ccc(C)cc4)C3)n2)c1` &field=pIC50 returns 6.00 to 7.00

GET /value?item= `COc1cc(Nc2nccc(N3CCC[C@H](C(=O)NCCc4ccccc4Cl)C3)n2)cc(OC)c1OC` &field=pIC50 returns 5.30 to 6.00

GET /value?item= `COc1cc(Nc2nccc(N3CCC[C@H](C(=O)NCc4cccc(NS(C)(=O)=O)c4)C3)n2)cc(OC)c1OC` &field=pIC50 returns 5.30 to 6.00

GET /value?item= `COc1cc(Nc2nccc(N3CCC[C@H](C(=O)NCc4cccc(-n5cccc5)c4)C3)n2)cc(OC)c1OC` &field=pIC50 returns > 7.30

GET /value?item= COc1cc(Nc2nccc(N3CCC[C@@H](C(=O)NCc4ccc(F)cc4)C3)n2)cc(OC)c1OC [Example 19] &field=pIC50 returns 5.30 to 6.00
